Known interaction score of a selection of binders
Target: T1, 4H2728-AA
T1 chain: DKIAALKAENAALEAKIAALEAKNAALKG
Assay: two-hybrid library CCmax;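 further: natural log of median RNA to DNA barcode read ratio; higher means stronger binding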
Details: mean of both orientations
Number only, no unit.

Recorded results for 3 binders are shown here.
[
  {
    "Binder": "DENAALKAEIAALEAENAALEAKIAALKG [4H1558-AA]",
    "Outcome measure": "interaction score",
    "Recorded number": -0.226
  },
  {
    "Binder": "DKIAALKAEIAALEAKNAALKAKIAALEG [4H2621-AA]",
    "Outcome measure": "interaction score",
    "Recorded number": 1.6
  },
  {
    "Binder": "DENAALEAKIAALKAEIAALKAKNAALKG [4H1360-AA]",
    "Outcome measure": "interaction score",
    "Recorded number": -1.69
  }
]

Provide measured interaction score value, entry: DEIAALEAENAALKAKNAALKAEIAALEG [4H249-AA]
-0.387

Provide measured interaction score value, entry: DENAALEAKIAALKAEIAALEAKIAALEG [4H1349-AA]
-1.04

Provide measured interaction score value, entry: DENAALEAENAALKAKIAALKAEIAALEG [4H1257-AA]
-0.459

Provide measured interaction score value, entry: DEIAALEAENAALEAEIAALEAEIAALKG [4H130-AA]
0.54
